# target.of.assay: SIRT2 (Homo sapiens, UniProt Q8IXJ6)
# Construct: recombinant active enzymes SIRT1, SIRT2, and the catalytically active fragment of SIRT3
# Sequence (Q8IXJ6 whole entry, the tested form may be a part): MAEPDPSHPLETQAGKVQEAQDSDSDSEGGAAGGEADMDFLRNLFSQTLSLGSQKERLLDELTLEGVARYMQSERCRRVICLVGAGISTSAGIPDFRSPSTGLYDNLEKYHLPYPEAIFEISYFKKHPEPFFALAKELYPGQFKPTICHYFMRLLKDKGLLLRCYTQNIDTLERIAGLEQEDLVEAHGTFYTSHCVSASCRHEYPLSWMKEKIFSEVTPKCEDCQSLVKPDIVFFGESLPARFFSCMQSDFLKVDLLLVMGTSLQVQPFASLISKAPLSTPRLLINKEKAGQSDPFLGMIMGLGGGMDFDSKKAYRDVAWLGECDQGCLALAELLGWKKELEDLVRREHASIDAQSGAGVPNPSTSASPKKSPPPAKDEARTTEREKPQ
# procedure.details: Fluor-de-Lys biochemical sirtuin deacetylation assay, SIRT2
# protocol.conditions: 10 μM
Counter-ions that a name gives are not always drawn.
Binary classification by inhibition at 10 µM, with 20% as an inclusive lower bound for 1; all other cases are -1.

Request: Test whether the molecule CN(c1ccc([S+](C)[O-])cc1)S(=O)(=O)c1cc(C(=O)Nc2ccc(Cl)cc2F)ccn1 (stereo not shown) [Compound 203Aq] records inhibition at 10 µM of 20% or higher.
Result: -1

Request: Now give it for CC(=O)c1ccc(C(C)Oc2cccc(C(=O)Nc3ccc(C#N)cc3)c2)cc1 (stereo not shown) [Compound 216Ac] too.
Result: 1

Request: Now give it for C[C@H](Oc1cccc(C(=O)Nc2ccc(C#N)cc2)c1)c1ccc(F)cc1 [Compound 216o] too.
Result: 1

Request: Now give it for CCN(c1ccc(O)cc1)S(=O)(=O)c1cccc(C(=O)Nc2ccc(C#N)cc2)c1 [Compound 203Ay] too.
Result: 1

Request: Now give it for CCN(c1ccc(OC)cc1)S(=O)(=O)c1cccc(C(=O)Nc2ccc(C#N)cc2)c1 [Compound 203Ba] too.
Result: 1

Request: Now give it for CN(Cc1ccc(F)cc1)c1cccc(C(=O)Nc2ccc(C#N)cc2)c1 [Compound 221c] too.
Result: 1

Request: Now give it for CC(=O)c1ccc(NC(=O)c2cccc(OC(C)c3ccc(C(C)=O)cc3)c2)cc1 (stereo not shown) [Compound 216Ay] too.
Result: 1

Request: Now give it for CSc1ccc(CSc2cccc(C(=O)Nc3ccc(Cl)cn3)c2)cc1 [Compound 211b] too.
Result: 1

Request: Now give it for CN(c1ccc(O)cc1)S(=O)(=O)c1cccc(C(=O)Nc2ccc(C#N)cc2)c1 [Compound 203Ax] too.
Result: 1

Request: Now give it for CN(c1ccc([S+](C)[O-])cc1)S(=O)(=O)c1cccc(C(=O)Nc2ccc(Cl)cc2F)c1 (stereo not shown) [Compound 203Ad] too.
Result: -1

Request: Now give it for COc1ccc(NC(=O)c2cccc(OC(C)c3ccc(C(C)=O)cc3)c2)cc1 (stereo not shown) [Compound 216Ax] too.
Result: 1

Request: Now give it for CCCN(CCC)S(=O)(=O)c1cccc(C(=O)Nc2ccc(Br)cc2)c1 [Compound 203d] too.
Result: -1

Request: Now give it for N#Cc1ccc(NC(=O)c2cccc(CN(Cc3ccc(F)c(F)c3)C3CC3)c2)cc1 [Compound 225d, hydrochloride] too.
Result: 1

Request: Now give it for N#Cc1ccc(NC(=O)c2ccnc(SCc3ccc(F)cc3)c2)cc1 [Compound 211e] too.
Result: 1

Request: Now give it for CN(c1ccc(S(C)(=O)=O)cc1)S(=O)(=O)c1cccc(C(=O)Nc2ccc(C#N)cc2F)c1 [Compound 203Ai] too.
Result: -1

====

# procedure.details: Microsomal stability screen, human
# protocol.conditions: 1 μM
With a cut-off of 90%, any Mean remaining parent NADPH-free (%) strictly below it is called 1; any Mean remaining parent NADPH-free (%) meeting it or above is called 0.

Request: For this molecule, is Mean remaining parent NADPH-free (%) lower than 90%? `CN(c1ccc(Cl)cc1)S(=O)(=O)c1cccc(C(=O)Nc2ccc(S(C)(=O)=O)cc2)c1`
Result: 0

***
Request: For this molecule, is Mean remaining parent NADPH-free (%) lower than 90%? `COc1ccc(N(C)S(=O)(=O)c2cccc(C(=O)Nc3ccc(C#N)cc3)c2)cc1`
Result: 0

Request: Now give it for `CC(=O)c1ccc(N(C)S(=O)(=O)c2cccc(C(=O)Nc3ccc(Cl)cc3)c2)cc1` too.
Result: 0

Request: Now give it for `N#Cc1ccc(NC(=O)c2cccc(S(=O)(=O)Cc3ccc(Cl)cc3)c2)cc1` too.
Result: 0

Request: Now give it for `CC(=O)c1ccc(N(C)S(=O)(=O)c2cccc(C(=O)Nc3ccc(Cl)cn3)c2)cc1` too.
Result: 1
